# assayedTarget: human activated kallikrein enzyme (plasma kallikrein) (Homo sapiens (Human))
# measurementNotes: Inhibition of human activated plasma kallikrein, fluorogenic peptide substrate assay, 500 pM enzyme format
# Type: biochemical
# conditionContext: 500 pM activated kallikrein enzyme, 300 uM Pro-Phe-Arg-7-amido-4-methylcoumarin substrate, 30 min preincubation, 10 min at RT; read-out: Primary Dose Response Assay: Average EC50
I'd appreciate it if you could supply EC50 values for the items below.

Study these solved cases before continuing.
>>> result("O=C(NCc1ncn2ccc(Cl)cc12)c1cnn(Cc2cn3c(CO)cccc3n2)c1")
"100 to 2000 nM"
>>> result("CC(C)(C#N)Cc1cc(C2CC2)cn2cc(Cn3cc(C(=O)NCc4ncn5ccc(Cl)c(F)c45)cn3)nc12")
"< 1 nM"

Provide the reported EC50 of each entry below, same order.
1. O=C(NCc1ncn2ccc(Cl)cc12)c1cnn(Cc2cn3cc(C4CC4)cc(CCCO)c3n2)c1
2. O=C(O)CCn1c(Cn2cc(C(=O)NCc3ncn4ccc(Cl)c(F)c34)nn2)cc2cc(C3CC3)ccc21 [Example I-251b]
3. O=C(NCc1ncn2ccc(Cl)c(F)c12)c1cn(Cc2cn3cc(C4CC4)cc(N4CCOC4=O)c3n2)nn1
4. COc1cccc2nc(Cn3cc(C(=O)NCc4ncn5ccc(Cl)cc45)cn3)cn12
5. O=C(NCc1ncn2ccc(Cl)cc12)c1cnn(Cc2cn3ccccc3n2)c1
6. Cc1ccc2nc(Cn3cc(C(=O)NCc4ncn5ccc(Cl)c(Cl)c45)cn3)cn2c1

1: < 1 nM; 2: < 1 nM; 3: < 1 nM; 4: 10 to 100 nM; 5: 100 to 2000 nM; 6: 10 to 100 nM

For the compound shown here, CC(NC(=O)c1cn(C(C)c2cn3cc(C4CC4)ccc3n2)nn1)c1ncn2ccc(Cl)c(F)c12 (stereo not drawn) , give the reported EC50.
100 to 2000 nM

----------
# assayedTarget: human activated kallikrein enzyme (plasma kallikrein) (Homo sapiens (Human), UniProt P03952)
# Sequence (P03952 391-638): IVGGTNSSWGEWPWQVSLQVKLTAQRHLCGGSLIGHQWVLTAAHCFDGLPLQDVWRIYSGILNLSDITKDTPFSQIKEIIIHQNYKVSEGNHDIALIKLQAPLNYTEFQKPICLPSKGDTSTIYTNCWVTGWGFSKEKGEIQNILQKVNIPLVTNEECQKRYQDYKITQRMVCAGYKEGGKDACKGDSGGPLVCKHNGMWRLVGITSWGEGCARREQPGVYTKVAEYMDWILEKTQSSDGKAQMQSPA
# Sequence (P03952 20-390 partner): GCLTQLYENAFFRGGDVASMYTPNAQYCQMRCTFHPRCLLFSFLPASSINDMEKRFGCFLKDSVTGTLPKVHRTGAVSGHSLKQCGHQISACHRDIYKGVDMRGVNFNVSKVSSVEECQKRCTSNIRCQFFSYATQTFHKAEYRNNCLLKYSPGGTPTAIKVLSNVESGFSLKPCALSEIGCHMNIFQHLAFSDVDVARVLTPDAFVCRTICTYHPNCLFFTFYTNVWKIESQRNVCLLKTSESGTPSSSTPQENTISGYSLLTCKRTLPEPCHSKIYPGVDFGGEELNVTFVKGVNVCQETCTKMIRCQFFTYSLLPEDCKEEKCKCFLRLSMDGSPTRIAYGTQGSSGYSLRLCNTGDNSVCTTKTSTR
# measurementNotes: Inhibition of human activated plasma kallikrein, fluorogenic peptide substrate assay, 500 pM enzyme format
# Assay type: biochemical
# conditionContext: 500 pM activated kallikrein enzyme, 300 uM Pro-Phe-Arg-7-amido-4-methylcoumarin substrate, 30 min preincubation, 10 min at RT; read-out: Primary Dose Response Assay: Average EC50
pEC50: −log10 of the molar value.
Consider the following compounds; for each one, report its pEC50.

Some compounds with recorded pEC50:
>>> result("CCOC(=O)C(C)(C)C(O)c1cc(C2CC2)cn2cc(Cn3cc(C(=O)NCc4ncn5ccc(Cl)c(F)c45)nn3)nc12 (stereo not drawn) [Example I-241a]")
"> 9.00"
>>> result("O=C(NCc1ncn2ccc(Cl)c(F)c12)c1cnn(Cc2cn3cc(C4CC4)cc(C4COC4)c3n2)c1")
"> 9.00"
>>> result("O=C(NCc1ncn2ccc(Cl)cc12)c1cn(Cc2cn3c(F)c(C4CC4)ccc3n2)nn1")
"> 9.00"
>>> result("CC(=O)c1cc(C2CC2)cn2cc(Cn3cc(C(=O)NCc4ncn5ccc(Cl)cc45)cn3)nc12 [Example I-104a]")
"> 9.00"

Please state pEC50 for every compound in the list that follows.
1. CCOC(=O)c1c(Cn2cc(C(=O)NCc3ncn4ccc(Cl)c(F)c34)nn2)cc2ccc(C3CC3)cn12
2. O=C(NCc1ncn2ccc(Cl)cc12)c1nnc(Cc2cn3nc(C4CC4)ccc3n2)o1
3. O=C(O)c1ccc(-n2c(Cn3cc(C(=O)NCc4ncn5ccc(Cl)c(F)c45)nn3)cc3cc(C4CC4)ccc32)cc1
4. O=C(NCc1ncn2ccc(Cl)c(F)c12)c1cn(Cc2cn3nc(C4CC4)ccc3n2)cn1
5. COCCOc1cc(C2CC2)cn2cc(Cn3cc(C(=O)NCc4ncn5ccc(Cl)cc45)cn3)nc12

["8.00 to 9.00", "> 9.00", "8.00 to 9.00", "> 9.00", "> 9.00"]

----------
# assayedTarget: human activated kallikrein enzyme (plasma kallikrein) (Homo sapiens (Human), UniProt P03952)
# measurementNotes: Inhibition of human activated plasma kallikrein, fluorogenic peptide substrate assay, 500 pM enzyme format
# Assay type: biochemical
# conditionContext: 500 pM activated kallikrein enzyme, 300 uM Pro-Phe-Arg-7-amido-4-methylcoumarin substrate, 30 min preincubation, 10 min at RT; read-out: Primary Dose Response Assay: Average EC50
measurementKind: EC50

Below, 3 molecules whose answers are already recorded.
>>> result("O=C(NCc1ncn2ccc(Cl)c(F)c12)c1cn(Cc2cn3cc(C4CC4)ccc3n2)c(C(=O)O)n1")
"< 1 nM"
>>> result("O=C(NCc1ncn2ccc(Cl)cc12)c1cn(Cc2cn3cc(C4CC4)ccc3n2)nc1C1COC1")
"< 1 nM"
>>> result("O=C(NCc1ncn2ccc(Cl)cc12)c1cnn(Cc2cn3cccc(C4(C(=O)O)CC4)c3n2)c1")
"1 to 10 nM"

Parameters: items (list). Returns: EC50 for each item.
1. O=C(NCc1ncn2ccc(Cl)c(F)c12)c1cn(Cc2cn3cc(C4CC4)cc(C4(F)COC4)c3n2)nn1
2. COC(=O)c1c(Cn2cc(C(=O)NCc3ncn4ccc(Cl)c(F)c34)nn2)[nH]c2cc(C3CC3)ccc12 [Example I-195]

["< 1 nM", "100 to 2000 nM"]

----------
# assayedTarget: human activated kallikrein enzyme (plasma kallikrein) (Homo sapiens (Human))
# measurementNotes: Inhibition of human activated plasma kallikrein, fluorogenic peptide substrate assay, 500 pM enzyme format
# Type: biochemical
# conditionContext: 500 pM activated kallikrein enzyme, 300 uM Pro-Phe-Arg-7-amido-4-methylcoumarin substrate, 30 min preincubation, 10 min at RT; read-out: Primary Dose Response Assay: Average EC50
pEC50: −log10 of the molar value.
measurementKind: pEC50

>>> result("CNc1cccc2nc(Cn3cc(C(=O)NCc4ncn5ccc(Cl)cc45)cn3)cn12")
"7.00 to 8.00"
>>> result("O=C(NCc1ncn2ccc(Cl)c(F)c12)c1cn(Cc2cn3nc(C4CC4)cc(N4CC(C(=O)O)C4)c3n2)nn1 [Example I-265b]")
"> 9.00"
>>> result("O=C(NCc1ncn2ccc(Cl)cc12)c1ncn(Cc2cn3cc(C4CC4)ccc3n2)n1")
"> 9.00"
>>> result("O=C(NCc1ncn2ccc(Br)cc12)c1cn(Cc2cn3cc(C4CC4)ccc3n2)nn1")
"> 9.00"
>>> result("CC(C)(Cc1cc(C2CC2)cn2cc(Cn3cc(C(=O)NCc4ncn5ccc(Cl)c(F)c45)cn3)nc12)c1nn[nH]n1")
"> 9.00"
>>> result("O=C(NCc1ncn2ccc(Cl)c(F)c12)c1cn(Cc2cn3cc(C4CC4)cc(-c4cncs4)c3n2)nn1")
"> 9.00"
>>> result("O=C(NCc1ncn2ccc(Cl)c(F)c12)c1cn(Cc2cc3ccc(C4CC4)cn3c2)nn1")
"8.00 to 9.00"
>>> result("O=Cc1cc(C2CC2)cn2cc(Cn3cc(C(=O)NCc4ncn5ccc(Cl)c(F)c45)nn3)nc12")
"> 9.00"

The following compounds each have a reported value; give each one's pEC50.
1. COC(=O)c1c(Cn2cc(C(=O)NCc3ncn4ccc(Cl)c(F)c34)nn2)[nH]c2cc(C3CC3)ccc12 [Example I-272]
2. O=C(NCc1ncn2ccc(Br)cc12)c1cnn(Cc2cn3cc(C4CC4)ccc3n2)c1
3. C#Cc1ccn2cnc(CNC(=O)c3cnn(Cc4cn5cc(C6CC6)ccc5n4)c3)c2c1
4. Cc1ncc(-c2cc(C3CC3)cn3cc(Cn4cc(C(=O)NCc5ncn6ccc(Cl)c(F)c56)nn4)nc23)s1

> 9.00
> 9.00
> 9.00
> 9.00

Provide pEC50 for all items below, preserving their order.
1. COCc1nn(Cc2cn3cc(C4CC4)ccc3n2)cc1C(=O)NCc1ncn2ccc(Cl)cc12
2. Cn1nc(C(=O)NCc2ncn3ccc(Cl)cc23)nc1Cc1cn2cc(C3CC3)ccc2n1

1: > 9.00; 2: 8.00 to 9.00

Quick request: pEC50 for each listed item, please.
1. O=C(NCc1ncn2ccc(Cl)c(F)c12)c1cn(Cc2cn3cc(C4CC4)cc(-n4cnnn4)c3n2)nn1
2. O=C(NCc1ncn2ccc(Cl)cc12)c1cnn(Cc2cn3cc(C4CC4)cc(CCO)c3n2)c1
3. O=C(NCc1ncn2ccc(Cl)c(F)c12)c1nnc(Cc2cn3nc(C4CC4)ccc3n2)o1
4. CCOC(=O)C(C)(C)Cc1cc(C2CC2)cn2cc(Cn3cc(C(=O)NCc4ncn5ccc(Cl)cc45)nn3)nc12

> 9.00
> 9.00
> 9.00
> 9.00

Please state pEC50 for every compound in the list that follows.
1. O=C(NCc1ncn2ccc(Br)c(F)c12)c1cn(Cc2cn3cc(C4CC4)cc(F)c3n2)nn1
2. O=C(O)c1cnn(-c2cc(C3CC3)cn3cc(Cn4cc(C(=O)NCc5ncn6ccc(Cl)c(F)c56)nn4)nc23)c1
3. CCOC(=O)C=Cc1cc(C2CC2)cn2cc(Cn3cc(C(=O)NCc4ncn5ccc(Cl)cc45)cn3)nc12 [Example I-100a]

["> 9.00", "> 9.00", "> 9.00"]

Would you mind listing pEC50 for each of the following compounds?
1. CC(c1cn2cc(C3CC3)ccc2n1)n1cc(C(=O)NCc2ncn3ccc(Cl)c(F)c23)nn1 (stereo not shown)
2. O=C(NCc1ncn2ccc(I)cc12)c1cnn(Cc2cn3cc(C4CC4)ccc3n2)c1
3. O=C(NCc1ncn2ccc(Cl)c(F)c12)c1cn(Cc2cn3cc(C4CC4)ccc3n2)nn1

1. > 9.00
2. 8.00 to 9.00
3. > 9.00

Kindly give each listed record's pEC50.
1. O=C(NCc1ncn2ccc(Cl)cc12)c1cnn(Cc2ccc3ncc(Cl)cc3c2)c1
2. CN(C)CCOCc1cc(C2CC2)cn2cc(Cn3cc(C(=O)NCc4ncn5ccc(Cl)c(F)c45)nn3)nc12
3. O=C(NCc1ncn2ccc(Cl)c(F)c12)c1cc(C(=O)O)n(Cc2cn3cc(C4CC4)ccc3n2)c1 [Example I-270b]

7.00 to 8.00
> 9.00
> 9.00

Record request: pEC50 value, item CCOC(=O)Cc1cc(C2CC2)cn2cc(Cn3cc(C(=O)NCc4ncn5ccc(Cl)c(F)c45)nn3)nc12 [Example I-157a]
> 9.00
